- Test system: OVCAR-5
- EXPERIMENTAL PROTOCOL: NCI tumour cell line growth inhibition, 48 h
Calls of active or inactive are those of the source. Cut-off read from the data, not from the text of the source: active = GI50 up to about 1.1 µM and inactive = higher.
Would you kindly list GI50 for each of these compounds?

Request the reported GI50 associated with CSc1ccsc1-c1sc(-c2cc(SC)c(-c3sc(-c4cc(SC)c(-c5sccc5SC)s4)cc3SC)s2)cc1SC
> 100 µM (inactive)

Could you tell me which GI50 is on file for CCN(CC)c1ccc2nc3ccc(/N=N/c4c(O)ccc5ccccc45)cc3[n+](-c3ccccc3)c2c1 ?
> 100 µM (inactive)

Which measured GI50 value corresponds to CCOc1ccc(N/C(=C(/C(Cl)=C(/Cl)NCCN)[N+](=O)[O-])n2nnc3ccccc32)cc1 ?
67.3 µM (inactive)

If you can, please state the reported GI50 value of CC[n+]1cnc(N)c2c(-c3ccc(Cl)cc3)cn(-c3ccc(C)cc3)c21 .
15.8 µM (inactive)

What value of GI50 has been recorded for this entry: CCOC(=O)c1c(OCC)[nH]c(=O)c(C(c2cccs2)c2c(O)c(C(=O)OCC)c(OCC)[nH]c2=O)c1O
26.5 µM (inactive)

What measured GI50 goes with COc1cccc(OC)c1/C=N\N1C(=O)c2ccccc2C1=O ?
> 100 µM (inactive)

State the recorded GI50 for this entry: CC(C)(Br)C(=O)N1CCN(C(c2ccccc2)c2ccccc2)CC1
> 100 µM (inactive)

Please report the recorded GI50 for COC1CC2CCC(C)[C@](O)(O2)C(=O)C(=O)N2CCCCC2C(=O)OC(C(C)CC2CCC(O)C(OC)C2)CC(=O)C(C)C=C(C)C(OC(=O)CN(C)C)C(OC)C(=O)C(C)CC(C)/C=C/C=C/C=C\1C (stereo partly drawn) .
12.6 µM (inactive)

* * *

- Tested on: Hs-578T
- EXPERIMENTAL PROTOCOL: NCI tumour cell line growth inhibition, 48 h
Activity calls are given as the source filed them. Rule as the data show it: active = GI50 up to about 1.1 µM and inactive = higher.
Give measured GI50 for each item. Keep answers brief.

Param readout = GI50; param system = Hs-578T; param query = CC(=O)OCC1=CC2OC(=O)C3=COC(OC4OC(CO)C(O)C(O)C4O)C1C32 (stereo unspecified) ; response: value
> 100 µM (inactive)

# query: GI50 | item O=C(NCc1ccccc1)c1c(O)nc2ccccc2c1O | system: Hs-578T
40.7 µM (inactive)

Lab note: need GI50 with Hs-578T for entry CC1=NN(c2ccccc2)C(=O)/C1=C/c1ccc(O)cc1 , please look it up.
> 100 µM (inactive)

Could you share what GI50 was measured for CCN(CC)c1ccc2nc3ccc(/N=N/c4c(O)ccc5ccccc45)cc3[n+](-c3ccccc3)c2c1 , tested on Hs-578T?
> 100 µM (inactive)

Record lookup: for Hs-578T, what GI50 belongs to CCOC(=O)c1cc2ncccc2c2ccccc12 ?
> 100 µM (inactive)

Reported GI50 for Hs-578T, given Nc1nc(N)c(N=Nc2ccc([As](=O)(O)O)c(O)c2)c(N)n1 ?
13 µM (inactive)

* * *

- Test system: RXF 393
- EXPERIMENTAL PROTOCOL: NCI tumour cell line growth inhibition, 48 h
Active and inactive are the calls of the source. Rule as the data show it: active = GI50 up to about 1.1 µM and inactive = higher.
Give one outcome, nothing more. List: Yes = active, No = inactive

Please indicate how the test categorized N#CC(NNC(=O)Cc1ccccc1)c1c(O)ccc2ccccc12 (stereo not given) .
No

What outcome does the record of this test show for COC(OC)c1cc2c(cc1C(=O)[C@@]13CCC[C@@H]1NC(=O)O3)OCO2 ?
No

For COc1cc2c(cc1OC)[C@H]1CN3CCC[C@H]3C=C1c1ccc(OC)c(O)c1-2 , what call appears in the results of this test?
Yes

Please indicate how the test categorized CC(C)=CCC/C(C)=C/CC/C(C)=C/CCC1(C)CCC([C@H](C)C(=O)O)OO1.CC1=C(CC/C(C)=C/CCC2(C)CCC([C@H](C)C(=O)O)OO2)C(C)(C)CCC1 (stereo not given in full) .
No

Outcome? CC(=O)OCC12CCC3C4(C)CCCC(C)(C)C4CCC3(C)C1CC(C1=CC(=O)OC1O)O2 (stereo not given)
No

* * *

- System: RXF 393
- EXPERIMENTAL PROTOCOL: NCI tumour cell line growth inhibition, 48 h
Activity calls are given as the source filed them. No stated cut-off is given here; in the data, active = GI50 up to about 1.1 µM and inactive = higher.
Result category, one only: active, inactive

Please state the recorded outcome for this compound: OCC[N+]12CCCN1CCC2
inactive

Status in this test for CC1(C)CC(=O)c2c(-c3ccc(Cl)cc3)c(C#N)c(=S)n(C3OC(CO)C(O)C(O)C3O)c2C1 (configuration not stated) ?
inactive

For this compound, state the assay outcome: CCCCCCCCCCCCCCCCOC[C@H](COC(c1ccccc1)(c1ccccc1)c1ccccc1)O[PH](=S)OC (some centres not stated)
inactive

Field: outcome | Entry: CCCCc1ccc(Nc2nc(Cl)c3ncn(COCCOC(C)=O)c3n2)cc1
inactive

For NC1=NC(c2ccccc2)CC(c2cc(Cl)ccc2O)=N1 (configuration not stated) , what call appears in the results of this test?
inactive

Assay outcome for Cc1ccc(C(=O)O/N=C2/CCC/C2=C\c2ccccc2)cc1 : what was it?
inactive

// return assay outcome for S=C(Nc1c2c(nc3ccccc13)CCCC2)Nc1c2c(nc3ccccc13)CCCC2
inactive

Record lookup: outcome of this test for N#CCCSC(=S)C1CCCC1=N (configuration not stated) ?
inactive

Tell me the assay call for Cc1ccccc1OC(C)C(=O)NN1C(=O)CC(=O)N(c2ccc(Cl)cc2)C1=S (configuration not stated) please.
inactive

Hi team, can someone confirm the assay call for COC(=O)CCC(=O)NC1c2cccc3cccc(c23)Cn2c(=O)n(C)c(=O)n21 (configuration not stated) ?
inactive

Recorded test outcome, item COc1cc2c3c4c1OCc1c5c(cc(c1-4)CC3[N+](C)(C)CC2)OCO5 (configuration not stated)
inactive

Look up the recorded call for CN1CCC(C(=O)NNc2ccccc2)CC1 in this test.
inactive

Any idea what this test logged for C=C1C(=O)O[C@H]2[C@@H]3O[C@@](C)(CC/C=C(\C)CCC[C@@H]2C)[C@H](O)C[C@@H]13 ?
inactive

Fill in: this test's call for CCOC(=O)Cn1c(=O)c2nc(SC)sc2n(-c2ccccc2)c1=O is ___
inactive

Field: outcome | Entry: N=C(N)N/N=C/c1c(-c2ccccc2[N+](=O)[O-])nc2sccn12
inactive

Called result for C=C=C(CC(CC(=C)Br)(C(=O)OC)C(=O)OC)S(=O)(=O)c1ccccc1
inactive

Identify the outcome logged in this assay for the compound shown: COc1ccc(/C=C2\CCC(CN(C)C)C2=O)cc1OC (configuration not stated)
inactive

Call for entry O=C1Nc2ccccc2/C1=N/Nc1nc(-c2ccc(Br)cc2)cs1 :
inactive

What call does the record list for Cc1cn(C2CC(n3cc(Cn4ccc(=O)[nH]c4=O)nn3)C(CO)O2)c(=O)[nH]c1=O (configuration not stated) ?
inactive

What did the test return for S=C(N/N=C/c1ccccn1)N1CCCCC1 ?
active

Dear all, I need the recorded test outcome for O=C1N=C2N=C(c3ccc(Cl)cc3)N(c3ccc(Cl)cc3)N2Sc2ccccc21 , thank you.
inactive

# outcome recorded in this test, key = CCCCOP1(=O)C=C(C)C(=C(Cl)Cl)C(C)=C1 (configuration not stated)
inactive

* * *

- System: LXFL 529
- EXPERIMENTAL PROTOCOL: NCI tumour cell line growth inhibition, 48 h
The source made the active and inactive calls. Rule as the data show it: active = GI50 up to about 1.1 µM and inactive = higher.
Respond only with the outcome that fits, drawn from active, inactive

Which outcome was assigned to CC(C)C(Sc1nc(-c2ccccc2)c(-c2ccccc2)[nH]1)c1n[nH]c(=S)n1-c1ccccc1 (stereo not drawn) in this test?
inactive

For this compound, state the assay outcome: CCn1c2ccccc2c(=O)c2c(OC)ccc(OC)c21
inactive

Would you mind telling me which call this test gave CCOC(=O)c1[nH]c(COC(C)=O)c2c1CCCCCCCCCC2 ?
inactive

Test call for this compound, please: CC1(C)COC2(OC1)C1=NS(=O)(=O)CC13CCC2C3(C)C (stereo not drawn)
inactive

Record lookup: outcome of this test for C[C@@H]1C[C@H]2[C@@H]3CCC4=CC(=O)C=C[C@]4(C)[C@@]3(F)[C@@H](O)C[C@]2(C)[C@@]1(O)C(=O)CO [DEXAMETHASONE] ?
inactive

Query: recorded result category for Cc1cc2c(c3c1c1ccccc1n3C)C(=O)C=CC2=O in this test
inactive

What is the recorded call for this compound in the test? COc1cccc(OC)c1/C=N\N1C(=O)c2ccccc2C1=O
inactive

Outcome? Cc1ccc2[nH]c3c(C)c4c(c(C)c3c2c1)CN(C)C=C4
active

Tell me the recorded outcome of this test for CO/N=C/c1cc(OC)c(OC)c(OC)c1 .
inactive

Could you please tell me the result logged for COc1ccc(N2C(=O)C3c4[nH]c5ccccc5c4C4CCCCCCCCCCC4C3C2=O)cc1 (stereo not drawn) in this assay?
inactive

Name the outcome recorded for Cc1ccc(C2=Nc3ccccc3NC(=O)C2)cc1 in the assay.
inactive

What outcome does the record of this test show for O=[N+]([O-])c1cccc2nc3ccccc3c(NCCN(CCO)CCO)c12 ?
active

Fill in: this test's call for CC#CC1C(OC(=O)c2ccccc2)CCCC1(CI)N=[N+]=[N-] (stereo not drawn) is ___
inactive

For COC(=O)c1sc(C(=O)OC)c2c1CSC2 , which call appears in the assay record?
inactive

Dear all, I need the recorded test outcome for CCCCCCCCCCCCCCCCCC(=O)NCC(COP(=O)(O)O)OCC (stereo not drawn) , thank you.
inactive

Outcome? COc1cc2c(cc1C1=NC(C)(C)CO1)OCO2
inactive

Returns: the outcome recorded for OCC[N+]12CCCN1CCC2 in this assay.
inactive

Called result for O=C(O)CC[C@H](NC(=O)c1ccc(-n2nc3ccc(=O)cc-3[nH]c2=O)cc1)C(=O)O
inactive

Please indicate how the test categorized C=CC[P@@]1(=O)O[C@H](c2ccccc2)C(C)N1C(C)C (stereo partly drawn) .
inactive

State the result this test recorded for Nc1nc(Cl)cc(NCCCNc2cc(Cl)nc(N)n2)n1 .
inactive

Check the results log: what was the call for COC(=O)N/N=C(\C)CC(=O)Nc1ccc(Cl)cc1 ?
inactive

Look up the recorded call for O=C1C=C(Nc2ccccc2C(=O)CC(=O)C(=O)Nc2cccc([N+](=O)[O-])c2)c2ccccc2C1=O in this test.
inactive

Outcome? CC[C@@]1(O)C(=O)OCc2c1cc1n(c2=O)Cc2cc3cc(OC)ccc3nc2-1
active

Per the records of this test, what outcome belongs to CN(C)C(=Nc1nc(N(C)C)s[s+]1)N(C)C ?
inactive

Fill in: this test's call for CC(C)(C)OP(=O)(OC(C)(C)C)C(O)c1ccc(/C=C(\C#N)C(N)=O)cc1 (stereo not drawn) is ___
inactive

Which outcome was entered for the compound CCOC(=O)c1c(C)c(C)n2c1NC(=O)C2 in this test?
inactive

Check the results log: what was the call for CC(N)Cc1ccc(F)cc1 (stereo not drawn) ?
inactive

Please state the recorded outcome for this compound: CCCCCCCC(=O)OC(CBr)COC(=O)C(C)(C)C (stereo not drawn)
inactive

These measurements were taken from ChEMBL document CHEMBL1201862.
